system: HCV NS3 protease (Hepatitis C virus genotype 1a)
Construct: more particularly HCV NS3 proteases
Sequence (P27958 1027-1208): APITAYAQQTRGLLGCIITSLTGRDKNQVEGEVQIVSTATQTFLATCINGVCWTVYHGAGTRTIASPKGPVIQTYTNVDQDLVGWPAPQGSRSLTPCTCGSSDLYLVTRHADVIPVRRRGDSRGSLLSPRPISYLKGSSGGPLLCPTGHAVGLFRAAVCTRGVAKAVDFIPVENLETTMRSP
assay_summary: Enzyme inhibition of HCV NS3 serine protease (cleavage of peptide substrate / EDVV AbuC-p-nitroanilide, with or without NS4A)
Assay type: biochemical
condition_set: Enzyme inhibition data; Ki from rate vs [inhibitor] plots, Morrison tight binding competitive inhibition fit; 30 C, pH 7.8; read-out: Ki
pKi: −log10 of the molar value. Starred links: 1 amine or outer side, 2 acyl side, 3 side chain; linkers in the order of their positions; H or OH if unused. Non-standard residues stand in square brackets, D forms with d. Residues, ends and D or L forms follow the SMILES beside them. *: point of attachment. Pyrazinecarbonyl = O=C(c1cnccn1)*; Hyp = O=C(O)[CH]1C[CH](O)CN1; Isovaleryl = CC(C)CC(=O)*; Abu = CC[CH](N)C(=O)O; CO = O=C([*:1])[*:2]; NHPh = c1ccc(N*)cc1; X1 = Cc1noc(C)c1C*; Bn = c1ccc(C*)cc1
experimental_endpoint: pKi

Exercise: Using known records, supply pKi for CCC(C=O)NC(=O)C1CC(OC(=O)CC(C)C)CN1C(=O)C(NC(=O)C(NC(=O)c1cnccn1)C(C)C)C(C)C (centres unmarked) [Compound 29] (Pyrazinecarbonyl-VV[Hyp](Isovaleryl)[Abu]-aldehyde; configuration not given here)
Key: 4.00 to 6.00

Exercise: Annotate the compound CCC(C=O)NC(=O)C1CC(OCc2ccccc2)CN1C(=O)C(NC(=O)c1ccccc1Br)C(C)C (centres unmarked) with its measured pKi.
Key: 4.00 to 6.00

Exercise: Answer with the recorded pKi of CCC(C=O)NC(=O)C1CC(OCc2ccccc2)CN1C(=O)C(NC(=O)CCCc1ccccc1)C(C)C (centres unmarked) only.
Key: < 4.00

Exercise: Entry CCC(C=O)NC(=O)C1CC(OCc2ccccc2)CN1C(=O)C(NC(=O)Nc1ccccc1)C(C)C (centres unmarked) [Compound 145] ({NHPh-CO}-Val-[Hyp](Bn)-[Abu]-aldehyde; configuration not given here) needs its pKi filled in; supply it.
Key: 4.00 to 6.00

Exercise: Answer with the recorded pKi of CCC(C=O)NC(=O)C1CC(OCc2c(C)noc2C)CN1C(=O)C(NC(=O)C(NC(=O)c1cnccn1)C(C)C)C(C)C (centres unmarked) [Compound 12] (Pyrazinecarbonyl-VV[Hyp](X1)[Abu]-aldehyde; configuration not given here) only.
Key: 4.00 to 6.00

###

system: HCV NS3 protease (Hepatitis C virus genotype 1a)
Construct: more particularly HCV NS3 proteases
assay_summary: Enzyme inhibition of HCV NS3 serine protease (cleavage of peptide substrate / EDVV AbuC-p-nitroanilide, with or without NS4A)
Format: biochemical
condition_set: Enzyme inhibition data; Ki from rate vs [inhibitor] plots, Morrison tight binding competitive inhibition fit; 30 C, pH 7.8; read-out: Ki
pKi: −log10 of the molar value. Starred links: 1 amine or outer side, 2 acyl side, 3 side chain; linkers in the order of their positions; H or OH if unused. Non-standard residues stand in square brackets, D forms with d. Residues, ends and D or L forms follow the SMILES beside them. ξ: configuration not given here. *: point of attachment. ξ(3-Amino-2-oxopentanoyl) = CCC(N[*:1])C(=O)C(=O)[*:2]; 1Nal = N[CH](Cc1cccc2ccccc12)C(=O)O; Pyrazinecarbonyl = O=C(c1cnccn1)*; Hyp = O=C(O)[CH]1C[CH](O)CN1; Morpholide = C1CN(*)CCO1; X10 = c1ccc2cc(C*)ccc2c1; Abu = CC[CH](N)C(=O)O; Bn = c1ccc(C*)cc1
experimental_endpoint: pKi

Exercise: Output pKi of CCC(C=O)NC(=O)C1CC(OCc2ccccc2)CN1C(=O)C(NC(=O)c1c(C)cccc1C)C(C)C (centres unmarked)
Key: < 4.00

Exercise: Give me measured pKi, please, for this compound: CCCC(C(=O)NC(C(=O)N1CC(OCc2ccccc2)CC1C(=O)NC(C=O)CC)C(C)C)c1ccccc1 (centres unmarked)
Key: 4.00 to 6.00

Exercise: Please look at this compound and report its pKi: CCC(C=O)NC(=O)C1CC(OCc2ccccc2)CN1C(=O)C(NC(=O)C(Cc1cccc2ccccc12)NC(=O)c1cnccn1)C(C)C (centres unmarked) [Compound 131] (Pyrazinecarbonyl-[1Nal]V[Hyp](Bn)[Abu]-aldehyde; configuration not given here)
Key: 4.00 to 6.00

Exercise: Annotate the compound CCC(C=O)NC(=O)C1CC(OCc2ccccc2)CN1C(=O)C(NC(=O)CCOc1ccccc1)C(C)C (centres unmarked) with its measured pKi.
Key: < 4.00

Exercise: Item CCC(NC(=O)C1CC(OCc2ccccc2)CN1C(=O)C(NC(=O)C(NC(=O)c1cnccn1)C(C)C)C(C)C)C(=O)C(=O)CCc1ccccc1 (centres unmarked) : provide pKi
Key: 4.00 to 6.00

Exercise: Find the measured pKi of CCC(NC(=O)C(CC(C)C)NC(=O)C(NC(=O)C(NC(=O)C(CC(=O)O)NC(=O)C(CCC(=O)O)NC(C)=O)C(C)C)C(C)C)C(=O)C(=O)N1CCOCC1 (centres unmarked) [Compound 109] (Ac-EDVVL[ξ(3-Amino-2-oxopentanoyl)]-Morpholide; configuration not given here) and report it.
Key: 4.00 to 6.00

Exercise: Tell me its pKi given CCC(C=O)NC(=O)C1CC(OCc2ccc3ccccc3c2)CN1C(=O)C(NC(=O)C(NC(=O)c1cnccn1)C(C)C)C(C)C (centres unmarked) [Compound 20] (Pyrazinecarbonyl-VV[Hyp](X10)[Abu]-aldehyde; configuration not given here) as the entry.
Key: 4.00 to 6.00

Exercise: Report pKi, nothing else, for this compound: CCC(C=O)NC(=O)C1CC(OCc2ccccc2)CN1C(=O)C(NC(=O)c1c[nH]c2ccccc12)C(C)C (centres unmarked)
Key: 4.00 to 6.00

Exercise: Query pKi for CCC(NC(=O)C(CC(C)C)NC(=O)C(NC(=O)C(NC(=O)c1cnccn1)C(C)C)C(C)C)C(=O)C(=O)NCC(C)OC (centres unmarked)
Key: 4.00 to 6.00

Exercise: Tell me pKi reported for CCOC(=O)C(F)(F)C(=O)C(CC)NC(=O)C1CC(OCc2ccccc2)CN1C(=O)C(NC(=O)C(NC(=O)c1cnccn1)C(C)C)C(C)C (centres unmarked)
Key: < 4.00

Exercise: Give pKi for the following compound: CCC(C=O)NC(=O)C1CC(OCc2ccccc2)CN1C(=O)C(NC(=O)Cc1ccsc1)C(C)C (centres unmarked)
Key: < 4.00
